B1: glmS ribozyme (parent)
chain: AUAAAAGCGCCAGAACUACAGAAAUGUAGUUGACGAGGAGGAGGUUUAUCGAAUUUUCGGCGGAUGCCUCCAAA

# Variants of: B1
# Assay Explanation: KM; higher = weaker cofactor use; RNA array
# Assay Setup: with glucosamine-6-phosphate
For each record, write down the corresponding KM.
All answers are understood in µM, so give the number only.

Input: Recorded KM of U54G C68G , please.
Output: 89.1

Input: What does the record list as KM for U31A C50A ?
Output: 605

Input: Any idea what its KM is? The variant is G43U U55A
Output: 1170

Input: Dear colleague, I am looking for the recorded KM of the following variant: C16U U56C
Output: 4050

Input: Given the entry A12C G40U , report its measured KM.
Output: 2490

Input: Item U31C A53U has what recorded KM?
Output: 2460

Input: Fill blank: measured KM of the variant A48C C70U is ____.
Output: 3470

Input: Name the reported KM value associated with the variant A15G G32U
Output: 2990

Input: Please look up its KM: A39U A53U
Output: 1260

Input: So what does the record say about KM for U31C G41U ?
Output: 1350

Input: Item U49G A53G A64G C67A has what recorded KM?
Output: 2220

Input: I am curious: what KM value has been reported for G44C A53G ?
Output: 3060

Input: State the recorded KM for this entry: G26U A48C
Output: 4480

Input: Could you tell me which KM is on file for A53C C71U ?
Output: 1760

Input: Could you share which KM value was measured for A39U U57A ?
Output: 4780

Input: # get_value(readout='KM', item= C16U U46G )
Output: 1810

Input: Given the entry A15C U54C , report its measured KM.
Output: 1740

Input: What KM value was documented for this variant, C11U U65A C71U ?
Output: 3610

Input: Please look up its KM: A39C C67U
Output: 1150

Input: Which KM is reported for this variant? G29C G41U
Output: 2090

Input: I would be grateful if you could share the reported KM for U45C C71U .
Output: 2470

Input: Bench note: what KM did A14U U55G show?
Output: 2280

Input: I'd like to know its KM. The variant in question is A39U G66U
Output: 2010

Input: What does the data say about its KM? Entry: U45C U46G
Output: 2110

Input: Please look up its KM: U45C C68G
Output: 714

Input: Please report the recorded KM for U49G C70U .
Output: 1860

Input: Recorded KM for G66A C67A , please?
Output: 1620

Input: Need KM, item A6U U46C
Output: 2710

Input: Fill in the blank: the reported KM of G37A A42U is ____.
Output: 2220

Input: # get_value(readout='KM', item= G40A A64G )
Output: 3100

Input: Please look up its KM: A6C A12C
Output: 1190

Input: I would be grateful if you could share the reported KM for C11U G40C C71U .
Output: 1450

Input: Can you look up the measured KM of G40U C70G for me?
Output: 1770

Input: Reported KM, variant A53G U55A : ____
Output: 3480

Input: May I ask what KM has been recorded for A42U C68U ?
Output: 1360

Input: Could you share which KM value was measured for G32C A53G ?
Output: 3340

Input: Please look up its KM: A12U U65G
Output: 4650
